The measured values listed here are drawn from patent US7973072B2.

# System Tested: human vanilloid receptor 1 (VR1) (Homo sapiens, UniProt Q8NER1)
# Sequence (Q8NER1 whole entry): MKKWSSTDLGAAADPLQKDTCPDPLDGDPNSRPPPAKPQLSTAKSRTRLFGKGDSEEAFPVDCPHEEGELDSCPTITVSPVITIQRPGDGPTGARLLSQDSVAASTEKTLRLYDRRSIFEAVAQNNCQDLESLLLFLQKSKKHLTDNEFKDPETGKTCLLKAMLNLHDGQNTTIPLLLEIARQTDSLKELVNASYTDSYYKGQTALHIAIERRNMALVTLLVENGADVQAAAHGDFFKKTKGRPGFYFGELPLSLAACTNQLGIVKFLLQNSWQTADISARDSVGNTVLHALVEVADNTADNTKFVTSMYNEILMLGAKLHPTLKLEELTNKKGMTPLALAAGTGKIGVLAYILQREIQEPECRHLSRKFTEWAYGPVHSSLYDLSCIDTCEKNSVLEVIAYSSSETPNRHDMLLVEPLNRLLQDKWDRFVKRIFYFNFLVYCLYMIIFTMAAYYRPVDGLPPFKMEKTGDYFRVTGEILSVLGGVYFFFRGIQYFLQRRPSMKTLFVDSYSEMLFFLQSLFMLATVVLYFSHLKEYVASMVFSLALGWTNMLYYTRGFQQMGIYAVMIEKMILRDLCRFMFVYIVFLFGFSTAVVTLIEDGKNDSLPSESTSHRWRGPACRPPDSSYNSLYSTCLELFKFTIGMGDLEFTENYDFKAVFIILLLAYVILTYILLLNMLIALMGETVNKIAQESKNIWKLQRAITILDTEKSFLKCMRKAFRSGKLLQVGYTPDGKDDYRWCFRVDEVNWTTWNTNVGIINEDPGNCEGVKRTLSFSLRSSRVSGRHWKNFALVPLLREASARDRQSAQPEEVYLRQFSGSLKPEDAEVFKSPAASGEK
# Protocol Text: FLIPR Ca2+ functional study on human vanilloid receptor 1 (CHO K1 cells transfected with human VR1)
# Experimental Conditions: FLIPR, agonistic action
Parameter: EC50 (µM)

A: Cc1cccc2c1C(=O)C(COC(=O)Nc1ccccc1)(COC(=O)Nc1ccccc1)CS2
B: COc1ccc(NC(=O)OCC2(COC(=O)Nc3ccc(OC)cc3)CSc3ccccc3C2=O)cc1
C: Cc1ccc2c(c1)[S+]([O-])CC(COC(=O)Nc1ccccc1)(COC(=O)Nc1ccccc1)C2=O (stereo not shown)
Incoming: Sort low-to-high on EC50, please. Give the order by naming the labels one after another as requested.
Outgoing: A, B, C
(A: 1.4 µM, B: 3.05 µM, C: 13.4 µM)

A: O=C(Nc1ccccc1)OCC1(COC(=O)Nc2ccccc2)CSc2ccccc2C1=O
B: Cc1ccc2c(c1)S(=O)(=O)CC(COC(=O)Nc1ccccc1)(COC(=O)Nc1ccccc1)C2=O
C: O=C(Nc1ccccc1)OCC1(COC(=O)Nc2ccccc2)CS(=O)(=O)c2ccccc2C1=O
Incoming: Arrange the 3 molecules by rising EC50, starting with the smallest. Give the order by naming the labels one after another as requested.
Outgoing: A, B, C

###

# System Tested: vanilloid receptor 1 (VR1/TRPV1) of the rat (Rattus norvegicus, UniProt O35433)
# Construct: host or cells: rat dorsal root ganglia primary cells (Ia) or CHO K1 cells stably transfected with the rat VR1 gene (Ib)
# Sequence (O35433 whole entry): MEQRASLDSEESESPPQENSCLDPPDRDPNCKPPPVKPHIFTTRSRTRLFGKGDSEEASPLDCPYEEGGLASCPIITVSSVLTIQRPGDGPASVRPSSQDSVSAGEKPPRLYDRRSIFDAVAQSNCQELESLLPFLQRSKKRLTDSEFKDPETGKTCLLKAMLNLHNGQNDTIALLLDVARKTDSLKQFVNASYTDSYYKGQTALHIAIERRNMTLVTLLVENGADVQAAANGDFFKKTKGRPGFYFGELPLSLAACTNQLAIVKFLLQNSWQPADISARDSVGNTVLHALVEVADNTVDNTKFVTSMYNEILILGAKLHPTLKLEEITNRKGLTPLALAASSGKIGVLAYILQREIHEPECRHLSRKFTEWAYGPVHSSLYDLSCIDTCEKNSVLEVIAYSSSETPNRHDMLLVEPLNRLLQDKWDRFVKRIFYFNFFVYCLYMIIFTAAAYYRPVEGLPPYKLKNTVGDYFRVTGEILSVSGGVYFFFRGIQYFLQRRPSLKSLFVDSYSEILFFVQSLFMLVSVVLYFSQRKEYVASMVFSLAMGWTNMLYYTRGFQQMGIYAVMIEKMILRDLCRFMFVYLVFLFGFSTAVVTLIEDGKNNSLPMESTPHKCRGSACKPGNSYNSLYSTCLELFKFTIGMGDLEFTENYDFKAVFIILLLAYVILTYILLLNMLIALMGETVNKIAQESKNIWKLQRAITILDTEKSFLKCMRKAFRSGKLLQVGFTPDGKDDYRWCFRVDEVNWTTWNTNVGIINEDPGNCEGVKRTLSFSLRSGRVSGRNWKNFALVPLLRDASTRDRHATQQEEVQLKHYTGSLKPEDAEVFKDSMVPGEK
# Protocol Text: FLIPR Ca2+ functional study on rat vanilloid receptor 1 (rat dorsal root ganglia cells or CHO K1 cells transfected with rat VR1)
# Assay type: cell-based
# Experimental Conditions: FLIPR, agonistic action
pEC50: −log10 of the molar value.
Parameter: pEC50

Incoming: Hello, please tell me recorded pEC50 for this one: Cc1ccc2c(c1)S(=O)(=O)CC(COC(=O)Nc1ccccc1)(COC(=O)Nc1ccccc1)C2=O
Outgoing: 5.47

I: O=C(Nc1ccccc1)OCC1(COC(=O)Nc2ccccc2)CSc2ccccc2C1=O
II: COc1ccc(NC(=O)OCC2(COC(=O)Nc3ccc(OC)cc3)CSc3ccccc3C2=O)cc1
Incoming: Could you please tell me which of these two has the higher pEC50: I or II ? Kindly give the label for the entry you pick.
Outgoing: I

###

# System Tested: vanilloid receptor 1 (VR1/TRPV1) of the rat (Rattus norvegicus)
# Construct: host or cells: rat dorsal root ganglia primary cells (Ia) or CHO K1 cells stably transfected with the rat VR1 gene (Ib)
# Protocol Text: FLIPR Ca2+ functional study on rat vanilloid receptor 1 (rat dorsal root ganglia cells or CHO K1 cells transfected with rat VR1)
# Format: cell-based
# Experimental Conditions: CHO-K1; test compound 10 μM; % activation based on Ca2+ signal after 10 μM capsaicin (CP); read-out: VR1 (rat) (% stimulation compared to 10 μM CP)
Parameter: activation at 10 µM (%)

Before answering, review these 2 worked examples.
Incoming: Hello, please tell me recorded activation at 10 µM for this one: Cc1ccc2c(c1)[S+]([O-])CC(COC(=O)Nc1ccccc1)(COC(=O)Nc1ccccc1)C2=O (stereo not drawn) [Example Compound 47]
Outgoing: 11.8

Incoming: Hello, please tell me recorded activation at 10 µM for this one: Cc1ccc2c(c1)S(=O)(=O)CC(COC(=O)Nc1ccccc1)(COC(=O)Nc1ccccc1)C2=O [Example Compound 48]
Outgoing: 64.9

1: Cc1cccc2c1SCC(CO)(COS(=O)(=O)c1ccc(C(C)(C)C)cc1)C2=O (stereo not drawn) [Example Compound 13]
2: O=C(Nc1ccccc1)OCC1(COC(=O)Nc2ccccc2)CS(=O)(=O)c2ccccc2C1=O [Example Compound 43]
Incoming: // task: argmin of activation at 10 µM over [ 1 , 2 ] Kindly give the label for the entry you pick.
Outgoing: 1
(1: 0.81%, 2: 48.5%)
